- measurementDescription: activity coefficient (dimensionless); of the first substance listed, at infinite dilution; xn = mol fraction of the nth substance listed
- experimentalParameters: 323.16 K; 101 kPa; Liquid; Dilutor technique; x1 = 0
measurementName: activity coefficient
Please reply with the value in numeric form only.

[
  {
    "compound": "C=CCCCCC [1-heptene] + CCCCn1cc[n+](C)c1.O=S(=O)([O-])C(F)(F)F",
    "measurementName": "activity coefficient",
    "recordedMeasurement": 20.2
  },
  {
    "compound": "C=CCCCCCC [oct-1-ene] + CCCCn1cc[n+](C)c1.O=S(=O)([O-])C(F)(F)F",
    "measurementName": "activity coefficient",
    "recordedMeasurement": 29.9
  },
  {
    "compound": "CCCCC [pentane] + CCCCn1cc[n+](C)c1.O=S(=O)([O-])C(F)(F)F",
    "measurementName": "activity coefficient",
    "recordedMeasurement": 17.5
  }
]

Now for another entry.
[ask] For the compound shown here, CCCCCC [hexane] + CCCCn1cc[n+](C)c1.O=S(=O)([O-])C(F)(F)F , give the reported activity coefficient.
[reply] 25.9
